target: HIV-1 NL4-3 Env on infected cells (HIV-1 group M subtype B, NL4-3 (pNL4-3 …, strain))

binder	binding result
c4302 (antibody, V domains shown) VH: QVLLEQSGGEMKKPGASLKVSCQASGYRFTNYGMSWVRQARGQGLEWMGWISAYNGKTIYAQRFQGRVTLTTDTSTRTAYLELRSLTSDDTAVYFCTRSQTYYFDSSDFYDGKYFDYWGQGTLVTVSS VL: AIQLTQSPSSLSASVGDRVTLTCRASQGISNALAWYQQKPGESPKLLIHAASSLESGVPSRFSGSGSGTDFTLTISGLQAEDFATYYCQQFNSFPLTFGPGTRLEIK	binds
c24356 (antibody, V domains shown) VH: QVQVVQSGAEVKQPGASVSVSCKVLGYTLSELSMHWVRQSPAKGLEWMAGFDPDANKEIYAQEFQGRVTLTHHFDTDTYFLELTSLRSDDTAVYYCATGERLAGNFLDWLHNFDYWGQGTLVTVSA VL: EIVLTQSPATLSLSPGERATLSCRASQSIGNYLAWYQQRPGQAPRLLIHSTSNRATGIPVRFTGSGSGTDFTLTISSLEAEDFAVYYCQHRVNWPPGYTFGQGTKLDIK	binds
c2518 (antibody, V domains shown) VH: QVRLHQWGEGLLRPSDTLTLSCSLSGNVFYNTFFNWVRQSPGRGLEWIAEVSFAGEWTFNPSLRSRVTTQVDGFTYRVSLFLKSMTAADAGVYYCASGGGSFDVDSWGPGIRVTVSS VL: EIVLTQTPLSSPVSLGQSASISCRSSQSLRHNNGNTYLSWFQQRPGQPPRLLIRKISDRFSGVPNRFSGSGAGTDFTLRIDRVEPEDVGTYYCLQATQFPWTFGQGTTVDIK	binds
